Test system: GABA transporter 3 (mGAT3, slc6a13, Mus musculus)
assay.method.text: Inhibition of mouse GAT3 expressed in HEK cells assessed as remaining [3H]-GABA uptake at 100 uM after 25 mins by liquid scintillation counting analysis relative to control
condition.set: HEK293
measured.metric: Activity (%)

O=C(c1ccccc1F)c1ccc(F)cc1/C=C\OCCN1CCCC(C(=O)O)C1 (stereo not drawn); 83.2

P: O=C(c1ccc(F)cc1)c1ccc(F)cc1/C=C/OCCN1CCCC(C(=O)O)C1 (stereo not drawn)
Q: O=C(c1ccccc1)c1ccccc1/C=C/OCCN1CCCC(C(=O)O)C1 (stereo not drawn)
Ask | Would you kindly point out which of P and Q has the smaller Activity figure? Selection: enter the item's label.
Reply | Q

A: O=C(O)C1CCCN(CCO/C=C/c2cc(F)ccc2Cc2ccccc2F)C1 (stereo not drawn)
B: O=C(c1cccc(F)c1)c1cc(F)ccc1/C=C\OCCN1CCCC(C(=O)O)C1 (stereo not drawn)
Ask | // which entry reports the smaller Activity, A or B ? // caller expects the label of the chosen entry
Reply | B

A: O=C(O)C1CCCN(CCO/C=C/c2ccc(F)cc2Cc2ccccc2F)C1 (stereo not drawn)
B: O=C(O)C1CCCN(CCO/C=C\c2ccccc2Cc2ccccc2)C1 (stereo not drawn)
Ask | I need your help: which of the pair A , B has higher Activity? Use the label to indicate which entry you chose.
Reply | A

* * *

assay.method.text: cells
Type: cell-based
condition.set: HEK293
pIC50: −log10 of the molar value.
measured.metric: pIC50

A: O=C(O)C1CCCN(CCO/C=C/c2ccc(F)cc2Cc2ccccc2F)C1 (centres undefined)
B: O=C(c1cccc(F)c1)c1ccc(F)cc1/C=C/OCCN1CCCC(C(=O)O)C1 (centres undefined)
Ask | Pick one, A or B : lowest reported pIC50. Write down the label of the entry you select.
Reply | B

a: O=C(c1ccccc1F)c1cc(F)ccc1/C=C/OCCN1CCCC(C(=O)O)C1 (centres undefined)
b: O=C(O)C1CCCN(CCO/C=C\c2ccc(F)cc2Cc2ccc(F)cc2)C1 (centres undefined)
Ask | For a and b , which recorded pIC50 is lower? Your answer should be the label attached to the chosen record.
Reply | a
(a: 4.17, b: 4.59)

* * *

measurement.target: UniProt P31648
measured.metric: IC50 (nM)

O=C(c1ccc(F)cc1)c1cc(F)ccc1/C=C/OCCN1CCCC(C(=O)O)C1 (stereo not drawn); 1860

1: O=C(O)C1CCCN(CCO/C=C/c2cc(F)ccc2Cc2ccccc2F)C1 (stereo not drawn)
2: O=C(O)C1CCCN(CCO/C=C/c2ccc(F)cc2Cc2ccccc2F)C1 (stereo not drawn)
3: O=C(O)C1CCCN(CCO/C=C\c2cc(F)ccc2Cc2ccc(F)cc2)C1 (stereo not drawn)
4: O=C(c1ccc(F)cc1)c1cc(F)ccc1/C=C\OCCN1CCCC(C(=O)O)C1 (stereo not drawn)
5: O=C(c1ccc(F)cc1)c1ccc(F)cc1/C=C/OCCN1CCCC(C(=O)O)C1 (stereo not drawn)
Ask | // smallest IC50 at index 0, largest at the end Put the labels in the requested order and write them down.
Reply | 4, 3, 2, 1, 5
(4: 339 nM, 3: 1100 nM, 2: 2690 nM, 1: 10200 nM, 5: 20900 nM)

P: O=C(O)C1CCCN(CCO/C=C\c2ccc(F)cc2Cc2ccc(F)cc2)C1 (stereo not drawn)
Q: O=C(c1cccc(F)c1)c1ccc(F)cc1/C=C\OCCN1CCCC(C(=O)O)C1 (stereo not drawn)
Ask | Could you point out whether the larger IC50 belongs to P or to Q ? // return label of chosen record
Reply | Q
(Q: 2630 nM, P: 1170 nM)

I: O=C(O)C1CCCN(CCO/C=C\c2ccccc2Cc2ccccc2)C1 (stereo not drawn)
II: O=C(O)C1CCCN(CCO/C=C/c2ccc(F)cc2Cc2ccc(F)cc2)C1 (stereo not drawn)
Ask | API: POST /compare with I and II ; response names the item with higher IC50. Refer to your chosen item by its label in the answer.
Reply | II

a: O=C(O)C1CCCN(CCO/C=C\c2cc(F)ccc2Cc2cccc(F)c2)C1 (stereo not drawn)
b: O=C(c1ccccc1)c1ccccc1/C=C\OCCN1CCCC(C(=O)O)C1 (stereo not drawn)
c: O=C(c1ccccc1F)c1ccc(F)cc1/C=C\OCCN1CCCC(C(=O)O)C1 (stereo not drawn)
d: O=C(O)C1CCCN(CCO/C=C\c2ccc(F)cc2Cc2ccccc2F)C1 (stereo not drawn)
Ask | Reorder the items by IC50, least to greatest. Your answer should be the labels, listed in the requested order.
Reply | a, d, c, b
(a: 302 nM, d: 631 nM, c: 3020 nM, b: 7080 nM)
